Kindly state solubility for each of the entries shown.
Assay: Solubility of compound at pH 6.8
Assay type: physicochemical
Details: buffer
Write the numeric value and append its unit.

Given "COC[C@H](C)n1cnnc1-c1cccc(NC(=O)c2cn(C)nc2OC)n1" , state its recorded solubility.
44 µg/mL

Which solubility is reported for this compound? "COc1nn(C)cc1C(=O)Nc1cccc(-c2nncn2[C@@H]2CCOC2)n1"
43 µg/mL

solubility lookup needed for "COc1nn(CC2CC2)cc1C(=O)Nc1cccc(-c2nncn2[C@@H](C)C(F)(F)F)n1" , thanks.
1.8 µg/mL

What value of measured solubility is listed for "COc1nn(C)cc1C(=O)Nc1cccc(-c2nncn2[C@H]2CCOC2)n1" ?
43 µg/mL

Query (compound): "COC[C@@H](C)n1cnnc1-c1cccc(NC(=O)c2cn(C)nc2OC)n1" ; field requested: solubility
41 µg/mL

Any idea what solubility was measured for COc1nn(C)cc1C(=O)Nc1cccc(-c2nncn2C(C)CO)n1 (racemic) ?
29 µg/mL

Please give the measured solubility for this compound: "CCn1cc(C(=O)Nc2cccc(-c3nncn3[C@@H](C)C(F)(F)F)n2)c(OC)n1"
4.4 µg/mL

Field request: solubility | item: "COc1ncncc1C(=O)Nc1cccc(-c2nncn2[C@@H](C)C(F)(F)F)n1"
56 µg/mL

Item "C[C@H](n1cnnc1-c1cccc(NC(=O)c2cccn(C)c2=O)n1)C(F)(F)F" has what recorded solubility?
64 µg/mL

----------
Kindly supply the reported IC50 values for the records listed here.
Target: Mitogen-activated protein kinase kinase kinase 5 (Homo sapiens, UniProt Q99683)
Sequence (Q99683 whole entry): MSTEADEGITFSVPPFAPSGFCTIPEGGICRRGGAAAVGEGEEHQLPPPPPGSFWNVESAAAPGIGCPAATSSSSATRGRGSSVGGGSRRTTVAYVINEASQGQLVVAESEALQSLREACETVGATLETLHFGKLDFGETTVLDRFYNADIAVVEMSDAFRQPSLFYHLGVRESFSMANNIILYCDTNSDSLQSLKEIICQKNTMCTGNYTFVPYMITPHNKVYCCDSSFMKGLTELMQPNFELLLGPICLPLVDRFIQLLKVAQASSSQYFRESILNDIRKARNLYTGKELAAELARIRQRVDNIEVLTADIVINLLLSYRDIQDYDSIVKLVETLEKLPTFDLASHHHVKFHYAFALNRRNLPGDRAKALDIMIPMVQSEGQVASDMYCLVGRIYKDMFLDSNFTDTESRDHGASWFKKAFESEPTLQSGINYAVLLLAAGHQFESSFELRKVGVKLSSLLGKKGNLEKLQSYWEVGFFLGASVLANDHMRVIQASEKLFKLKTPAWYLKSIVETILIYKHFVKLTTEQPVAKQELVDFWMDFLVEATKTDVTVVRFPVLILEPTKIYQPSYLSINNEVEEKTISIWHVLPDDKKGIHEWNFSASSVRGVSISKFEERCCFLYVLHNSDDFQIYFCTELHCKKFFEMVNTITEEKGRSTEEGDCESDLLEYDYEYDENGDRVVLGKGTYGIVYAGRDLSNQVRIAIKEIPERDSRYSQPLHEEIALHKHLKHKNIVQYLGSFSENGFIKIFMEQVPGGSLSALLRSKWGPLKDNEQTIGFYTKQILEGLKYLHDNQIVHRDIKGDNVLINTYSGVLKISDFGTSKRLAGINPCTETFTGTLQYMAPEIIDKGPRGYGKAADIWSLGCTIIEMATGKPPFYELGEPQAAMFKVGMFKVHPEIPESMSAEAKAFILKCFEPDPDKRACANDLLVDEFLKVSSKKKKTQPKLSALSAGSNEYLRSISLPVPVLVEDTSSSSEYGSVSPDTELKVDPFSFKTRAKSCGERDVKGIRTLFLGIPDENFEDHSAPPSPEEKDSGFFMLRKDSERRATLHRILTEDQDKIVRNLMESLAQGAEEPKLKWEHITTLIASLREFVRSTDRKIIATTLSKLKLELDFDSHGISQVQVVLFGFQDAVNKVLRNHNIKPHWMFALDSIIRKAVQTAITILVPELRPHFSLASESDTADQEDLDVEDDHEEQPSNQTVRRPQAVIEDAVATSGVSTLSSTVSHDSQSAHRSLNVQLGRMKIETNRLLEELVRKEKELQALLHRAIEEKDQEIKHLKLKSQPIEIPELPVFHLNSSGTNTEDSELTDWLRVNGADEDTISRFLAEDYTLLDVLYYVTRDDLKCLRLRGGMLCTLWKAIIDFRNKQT
Assay: Inhibition of ASK1 (unknown origin) using myelin basic protein as substrate preincubated for 20 mins followed by 33P-ATP addition and measured after 2 hrs
Provide the reading as a plain figure in nM.

Tell me the measured IC50 of "COc1nn(-c2cnccn2)cc1C(=O)Nc1cccc(-c2nncn2[C@@H](C)C(F)(F)F)n1" , please.
3

Given "COc1ccccc1C(=O)Nc1cccc(-c2nncn2[C@@H](C)C(F)(F)F)n1" , state its recorded IC50.
3

Form field: reported IC50 of "COc1ncc(C)cc1C(=O)Nc1cccc(-c2nncn2[C@@H](C)C(F)(F)F)n1"
3

Entry under review: "COc1nn(C)cc1C(=O)Nc1cccc(-c2nncn2[C@@H](C)C(F)F)n1" . Reported IC50?
6

Looking for the measured IC50 of "COCCn1cc(C(=O)Nc2cccc(-c3nncn3[C@@H](C)C(F)(F)F)n2)c(OC)n1" , can you help?
2

----------
Target: Mitogen-activated protein kinase kinase kinase 5 (Homo sapiens, UniProt Q99683)
Experiment: Inhibition of ASK1 (unknown origin) using myelin basic protein as substrate preincubated for 20 mins followed by 33P-ATP addition and measured after 2 hrs
pIC50: −log10 of the molar value.
Quick rule for you: pIC50 at 8 or higher means Met, lower means Not met.

For this compound, is measured pIC50 8 or higher? "COc1nn(C)cc1C(=O)Nc1cccc(-c2nncn2[C@H](C)C(F)(F)F)n1"
Not met

Please indicate if the recorded pIC50 for "COc1nn(CC(F)(F)F)cc1C(=O)Nc1cccc(-c2nncn2[C@@H](C)C(F)(F)F)n1" meets or exceeds 8.
Met

Does pIC50 meet or surpass 8 for "COC[C@H](C)n1cnnc1-c1cccc(NC(=O)c2cn(C)nc2OC)n1" ?
Not met

Please indicate if the recorded pIC50 for "C[C@H](n1cnnc1-c1cccc(NC(=O)c2cccc3nccnc23)n1)C(F)(F)F" meets or exceeds 8.
Met

// inclusive: pIC50 at least 8? input: "COc1nn(C)cc1C(=O)Nc1cccc(-c2nncn2C2(C(F)(F)F)CC2)n1"
Met

Determine whether measured pIC50 meets or exceeds 8 for "COC[C@@H](C)n1cnnc1-c1cccc(NC(=O)c2cn(C)nc2OC)n1"
Not met

I'd appreciate it if you could say whether "COc1nn(C)cc1C(=O)Nc1cccc(-c2nncn2[C@@H](C)C(F)(F)F)n1" has pIC50 at least equal to 8.
Met

Reported pIC50 reaches at least 8 for "CCn1cc(C(=O)Nc2cccc(-c3nncn3[C@@H](C)C(F)(F)F)n2)c(OC)n1" ?
Met

# bool: pIC50 of "COc1nn(C)cc1C(=O)Nc1cccc(-c2nncn2[C@@H]2CCOC2)n1" >= 8
Met

Is it the case that "COc1nn(C)cc1C(=O)Nc1cccc(-c2nncn2[C@H](C)C(F)F)n1" has pIC50 reaching or exceeding 8?
Not met

API: above_or_equal(metric=pIC50, cutoff=8) for item "C[C@H](n1cnnc1-c1cccc(NC(=O)c2cccc3cccnc23)n1)C(F)(F)F"
Met

Reported pIC50 reaches at least 8 for COc1nn(C)cc1C(=O)Nc1cccc(-c2nncn2C2CCC2(F)F)n1 (stereo not given) ?
Met

Threshold query (pIC50 >= 8) on "COc1nn(CC2CC2)cc1C(=O)Nc1cccc(-c2nncn2[C@@H](C)C(F)(F)F)n1"
Met

----------
Test: Microsomal stability in human liver microsomes
Format: ADME, Microsome
Conditions: read-out: Stabilty
ENDPOINT_NAME: CLint scaled (mL/min/kg)
Just the number in mL/min/kg, nothing appended.

Look up CLint scaled: "COC[C@@H](C)n1cnnc1-c1cccc(NC(=O)c2cn(C)nc2OC)n1"
15

Sample "COc1nn(C)cc1C(=O)Nc1cccc(-c2nncn2[C@H]2CCOC2)n1" — what was its CLint scaled?
20

Dear colleague, I am looking for the recorded CLint scaled of the following molecule: "COc1nn(C)cc1C(=O)Nc1cccc(-c2nncn2[C@@H]2CCOC2)n1"
6

# input molecule: "CCn1cc(C(=O)Nc2cccc(-c3nncn3[C@@H](C)C(F)(F)F)n2)c(OC)n1" ; wanted: its CLint scaled
36

Field request: CLint scaled | item: "C[C@H](n1cnnc1-c1cccc(NC(=O)c2cccn(C)c2=O)n1)C(F)(F)F"
9

Returns the measured CLint scaled for the input molecule. Input: "COc1nn(CC2CC2)cc1C(=O)Nc1cccc(-c2nncn2[C@@H](C)C(F)(F)F)n1"
5

Form field: reported CLint scaled of "COc1ncncc1C(=O)Nc1cccc(-c2nncn2[C@@H](C)C(F)(F)F)n1"
14

Given "COC[C@H](C)n1cnnc1-c1cccc(NC(=O)c2cn(C)nc2OC)n1" , state its recorded CLint scaled.
7

----------
Assay: Efflux ratio of apparent permeability across basolateral to apical side over apical to basolateral side in MDCK-MDR1 cells at 1 uM after 2 hrs
Format: ADME, cell-based, Canis lupus familiaris
Settings: dog
ENDPOINT_NAME: efflux ratio at 2 h, 1 µM
Give the figure only, with no unit attached.

Returns the measured efflux ratio at 2 h, 1 µM for the input compound. Input: "CCn1cc(C(=O)Nc2cccc(-c3nncn3[C@@H](C)C(F)(F)F)n2)c(OC)n1"
6.8

Which efflux ratio at 2 h, 1 µM is reported for this compound? "COc1nn(C)cc1C(=O)Nc1cccc(-c2nncn2[C@@H]2CCOC2)n1"
47

Can you look up the measured efflux ratio at 2 h, 1 µM of "C[C@H](n1cnnc1-c1cccc(NC(=O)c2cccn(C)c2=O)n1)C(F)(F)F" for me?
17

Which efflux ratio at 2 h, 1 µM is listed for COc1nn(C)cc1C(=O)Nc1cccc(-c2nncn2C(C)CO)n1 (racemic) ?
45

State the recorded efflux ratio at 2 h, 1 µM for this entry: "COC[C@H](C)n1cnnc1-c1cccc(NC(=O)c2cn(C)nc2OC)n1"
33

What does the record list as efflux ratio at 2 h, 1 µM for "COC[C@@H](C)n1cnnc1-c1cccc(NC(=O)c2cn(C)nc2OC)n1" ?
45

// lookup efflux ratio at 2 h, 1 µM for "COc1ncncc1C(=O)Nc1cccc(-c2nncn2[C@@H](C)C(F)(F)F)n1"
3.4

GET /values?readout=efflux ratio at 2 h, 1 µM&item= "COc1nn(C)cc1C(=O)Nc1cccc(-c2nncn2[C@H]2CCOC2)n1"
72

Entry "COc1nn(CC2CC2)cc1C(=O)Nc1cccc(-c2nncn2[C@@H](C)C(F)(F)F)n1" has what efflux ratio at 2 h, 1 µM?
5.9

----------
ENDPOINT_NAME: IC50

Form field: IC50 recorded for "COc1ncc(F)cc1C(=O)Nc1cccc(-c2nncn2[C@@H](C)C(F)(F)F)n1" with 5-hydroxytryptamine receptor 2B (Homo sapiens) (enter value)
> 1000 nM

----------
Assay: Apparent permeability from apical to basolateral side in MDCK- MDR1 cells at 1 uM after 2 hrs
Assay type: ADME, cell-based, Canis lupus familiaris
Details: dog
Response key: yes means Papp A→B at 2 h, 1 µM >= 1 ×10⁻⁶ cm/s; no means Papp A→B at 2 h, 1 µM < 1 ×10⁻⁶ cm/s.

Decide: Papp A→B at 2 h, 1 µM of "CCn1cc(C(=O)Nc2cccc(-c3nncn3[C@@H](C)C(F)(F)F)n2)c(OC)n1" >= 1 ×10⁻⁶ cm/s?
yes

Check this compound for Papp A→B at 2 h, 1 µM at or above 1 ×10⁻⁶ cm/s: "COC[C@H](C)n1cnnc1-c1cccc(NC(=O)c2cn(C)nc2OC)n1"
no

Reported Papp A→B at 2 h, 1 µM reaches at least 1 ×10⁻⁶ cm/s for "COc1nn(CC2CC2)cc1C(=O)Nc1cccc(-c2nncn2[C@@H](C)C(F)(F)F)n1" ?
yes

Given the entry "COc1nn(C)cc1C(=O)Nc1cccc(-c2nncn2[C@H]2CCOC2)n1" , answer whether its Papp A→B at 2 h, 1 µM meets or surpasses 1 ×10⁻⁶ cm/s.
no

Dear colleague, could you confirm whether "COc1nn(C)cc1C(=O)Nc1cccc(-c2nncn2[C@@H]2CCOC2)n1" has Papp A→B at 2 h, 1 µM at or above 1 ×10⁻⁶ cm/s?
no

Can COc1nn(C)cc1C(=O)Nc1cccc(-c2nncn2C(C)CO)n1 (racemic) be said to have Papp A→B at 2 h, 1 µM at or above 1 ×10⁻⁶ cm/s?
no

Is it the case that "C[C@H](n1cnnc1-c1cccc(NC(=O)c2cccn(C)c2=O)n1)C(F)(F)F" has Papp A→B at 2 h, 1 µM reaching or exceeding 1 ×10⁻⁶ cm/s?
yes

Textbook exercise: given the entry "COc1ncncc1C(=O)Nc1cccc(-c2nncn2[C@@H](C)C(F)(F)F)n1" , state whether its Papp A→B at 2 h, 1 µM is greater than or equal to 1 ×10⁻⁶ cm/s.
yes
